The reported numbers originate from the Human Domainome abundance scans (Beltran et al. 2025).

B1: Glucocorticoid receptor, residues 419 to 494; numbered along this chain, P04150 (parent)
chain: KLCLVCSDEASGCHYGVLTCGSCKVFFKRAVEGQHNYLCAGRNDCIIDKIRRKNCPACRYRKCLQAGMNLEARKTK

variants of: B1; test: abundance fitness (aPCA) (normalised: wild type 0, dead -1); higher = more abundant; growth selection in yeast, the domain comes from the species named; conditions: Homo sapiens
assay_endpoint: abundance fitness
Give only the figure.

Record `KLCLVCSDKASGCHYGVLTCGSCKVFFKRAVEGQHNYLCAGRNDCIIDKIRRKNCPACRYRKCLQAGMNLEARKTK` . Reported abundance fitness: 0.105

Sure, the documented abundance fitness for `KLCLVCSDEASGCHYGVLTCGSCKVFFKRAVEGQHNYLCAGRNWCIIDKIRRKNCPACRYRKCLQAGMNLEARKTK` is -0.423

// abundance fitness lookup, variant = `KLCLVCSDEASGLHYGVLTCGSCKVFFKRAVEGQHNYLCAGRNDCIIDKIRRKNCPACRYRKCLQAGMNLEARKTK` , result: -0.007

Lab note: measured abundance fitness of `KLCLVCSDEASGCHYGVLTCGSCKVFAKRAVEGQHNYLCAGRNDCIIDKIRRKNCPACRYRKCLQAGMNLEARKTK` was -0.25

The measured abundance fitness associated with `KLCLVCSDEASGCHYGVLTCGSCKVFFKRAVEGQHNYLCAGRNDCIIDKIRRKNCPACRYRKCLQAGMNLYARKTK` reads -0.131

Input `KLCLVCSDEWSGCHYGVLTCGSCKVFFKRAVEGQHNYLCAGRNDCIIDKIRRKNCPACRYRKCLQAGMNLEARKTK` . Output abundance fitness: -0.625

Form: variant = `KLCLVCSDEASGCHYGVLTCGSCKVFFKRAVEGQHNYLCAGRNDCIIDKIRRKNCPACRYRKCLQAGMNYEARKTK` ; abundance fitness = 0.023

Sample `KLCLVCSDEASGCHYGVLDCGSCKVFFKRAVEGQHNYLCAGRNDCIIDKIRRKNCPACRYRKCLQAGMNLEARKTK` ; abundance fitness observed: -0.909

Value of abundance fitness reported for the variant `KLCLVCSDEASGCHYGVLTCGSCKVFFKCAVEGQHNYLCAGRNDCIIDKIRRKNCPACRYRKCLQAGMNLEARKTK` is -0.077

Given item `KLCLVCSDEASGCHYGVLTCGSCKVFFKRAVEGQHNYFCAGRNDCIIDKIRRKNCPACRYRKCLQAGMNLEARKTK` , the value recorded as its abundance fitness is 0.018

The reported abundance fitness of the variant `KLCLVCSDEASGCHYGVLTCGSCKVFFKRAVEIQHNYLCAGRNDCIIDKIRRKNCPACRYRKCLQAGMNLEARKTK` was -0.121

Briefly, abundance fitness measured for `KLCLVCSDEASGCHYGVLTCGSCKVFFKRAVHGQHNYLCAGRNDCIIDKIRRKNCPACRYRKCLQAGMNLEARKTK` : -0.058

Entry `KLCLVCSDEASGCHYGVLTCGSCKVFFKRAVEGQHNYLCAGRNDCIIDKIRRFNCPACRYRKCLQAGMNLEARKTK` , abundance fitness reported as -0.033

Lab book: abundance fitness of `KLCLVCSDEASGCHYGVLTCGSCKVFFKRAVEGQHNYLCAGRNDCIQDKIRRKNCPACRYRKCLQAGMNLEARKTK` noted as -0.183
